src = patent US20090239877A1

# Measurement target: human GHS-R 1a (Homo sapiens)
# Protocol summary: In vitro intracellular calcium release assay using human GHS-R 1a transfected CHO cells
# Format: cell-based
# Set-up: expressed in transfected cells; host or cells: CHO-K1 Chinese hamster ovary cells (ATCC No. CCL-61), transient transfection by electroporation
# Recorded conditions: intracellular calcium release, compound at 10^-6 M, relative to basal level (0%) and 1 μM ghrelin (100%)
Measure: activation at 1 µM (%)

| Chemical smiles | Reading unit | activation at 1 µM |
| --- | --- | --- |
| COc1ccc(Cn2c(CCc3ccccc3)nnc2[C@@H](Cc2c[nH]c3ccccc23)NC(=O)[C@H]2CNCCN2)cc1 | % | 40 |

[I] COc1cccc(Cn2c(CCCc3ccccc3)nnc2[C@@H](Cc2c[nH]c3ccccc23)NC(=O)C(C)(C)N)c1
[II] O=C(N[C@H](Cc1c[nH]c2ccccc12)c1nnc(Cc2ccccc2)n1Cc1ccc(Cl)c(Cl)c1)C1CCNCC1
Query :: Of I and II , whose reported activation at 1 µM is the larger number? I would appreciate it if you answered with the label of your choice.
Result :: II
(II: 120%, I: 47%)

---

# Measurement target: human GHS-R 1a (Homo sapiens, UniProt Q92847)
# Sequence (Q92847 whole entry): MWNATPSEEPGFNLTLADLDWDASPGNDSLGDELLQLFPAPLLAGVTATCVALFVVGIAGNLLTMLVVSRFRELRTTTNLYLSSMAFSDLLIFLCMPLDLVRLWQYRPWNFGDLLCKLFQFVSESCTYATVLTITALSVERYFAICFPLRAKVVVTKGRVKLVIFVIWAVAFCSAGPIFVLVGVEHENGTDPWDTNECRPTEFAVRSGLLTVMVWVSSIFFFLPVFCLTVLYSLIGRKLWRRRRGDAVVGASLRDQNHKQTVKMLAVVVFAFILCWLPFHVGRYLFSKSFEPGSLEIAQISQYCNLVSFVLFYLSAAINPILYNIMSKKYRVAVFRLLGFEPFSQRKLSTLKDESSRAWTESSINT
# Protocol summary: In vitro intracellular calcium release assay using human GHS-R 1a transfected CHO cells
# Type: cell-based
# Design: expressed in transfected cells; host or cells: CHO-K1 Chinese hamster ovary cells (ATCC No. CCL-61), transient transfection by electroporation
# Recorded conditions: intracellular calcium release, compound at 10^-6 M, relative to basal level (0%) and 1 μM ghrelin (100%)
Measure: activation at 1 µM (%)

Check out these entries, answers already filled in.
| Chemical smiles | Val |
| --- | --- |
| O=C(N[C@H](Cc1c[nH]c2ccccc12)c1nnc(CCc2c[nH]c3ccccc23)n1Cc1cccc2ccccc12)C1CCOCC1 | 80 |
| COc1ccc(Cn2c(CCc3cc4ccccc4[nH]3)nnc2[C@@H](Cc2c[nH]c3ccccc23)NC(=O)C2CCOCC2)c(OC)c1 | 0 |
| O=C(N[C@H](Cc1c[nH]c2ccccc12)c1nnc(CCCc2c[nH]c3ccccc23)n1Cc1ccccc1)C1CCNCC1 | 150 |
| COc1ccc(Cn2c(CCc3c[nH]c4ccccc34)nnc2[C@@H](Cc2c[nH]c3ccccc23)NC(=O)c2cccc(CN)c2)cc1 | 70 |

[a] O=C(Cc1ccccn1)N[C@H](Cc1c[nH]c2ccccc12)c1nnc(CCc2c[nH]c3ccccc23)n1Cc1cccc2ccccc12
[b] COc1ccc(Cn2c(CCc3c[nH]c4ccccc34)nnc2[C@@H](Cc2c[nH]c3ccccc23)NC(=O)C2(N)CCNCC2)cc1
Query :: Of a and b , whose reported activation at 1 µM is the larger number? I would appreciate it if you answered with the label of your choice.
Result :: b

---

# Measurement target: human GHS-R 1a (Homo sapiens)
# Protocol summary: In vitro intracellular calcium release assay using human GHS-R 1a transfected CHO cells
# Format: cell-based
# Design: expressed in transfected cells; host or cells: CHO-K1 Chinese hamster ovary cells (ATCC No. CCL-61), transient transfection by electroporation
# Recorded conditions: antagonist dissociation constant, antagonist inhibition curves in the presence of 10^-7 M ghrelin, Cheng-Prusoff equation, Fluo-4 AM
Measure: Kb (nM)

Check out these entries, answers already filled in.
| Compound | Measurement target | Kb, nM |
| --- | --- | --- |
| O=C(N[C@H](Cc1c[nH]c2ccccc12)c1nnc(CCc2ccccc2)n1Cc1cccc2ccccc12)c1ccccn1 [Compound 16] | human GHS-R 1a (Homo sapiens) | 79 |
| COc1ccc(Cn2c(CCc3c[nH]c4ccccc34)nnc2[C@H](Cc2c[nH]c3ccccc23)NC(=O)c2cnccn2)cc1 [Compound 29] | human GHS-R 1a (Homo sapiens) | 215 |
| COc1ccc(Cn2c(CCc3ccccc3)nnc2[C@@H](Cc2c[nH]c3ccccc23)NC(=O)C2CCOCC2)c(OC)c1 [Compound 12] | human GHS-R 1a (Homo sapiens) | 68 |
| O=C(N[C@H](Cc1c[nH]c2ccccc12)c1nnc(CCCc2c[nH]c3ccccc23)n1Cc1ccccc1)C1CCOCC1 [Compound 23] | human GHS-R 1a (Homo sapiens) | 50 |

[I] COc1ccc(Cn2c(CCc3ccccc3)nnc2[C@@H](Cc2c[nH]c3ccccc23)NC(=O)c2ccnnc2)c(OC)c1 [Compound 7]
[II] O=C(N[C@H](Cc1c[nH]c2ccccc12)c1nnc(Cc2ccccc2)n1Cc1ccc(Cl)c(Cl)c1)C1CCOCC1 [Compound 37]
[III] COc1ccc(Cn2c(CCc3c[nH]c4ccccc34)nnc2[C@@H](Cc2c[nH]c3ccccc23)NC(=O)c2ccn[nH]2)cc1 [Compound 14]
Query :: Arrange the 3 compounds by rising Kb, starting with the smallest. A complete answer lists every label in the requested sequence.
Result :: III, I, II
